target: Glutamate receptor ionotropic, AMPA (Rattus norvegicus, UniProt P19490+P19491+P19492+P19493)
Decide using IC50 alone. Strictly below 700 nM: satisfied. Equal to or above 700 nM: not satisfied.

Sample answers from the record:
| item smiles | class assignment |
| --- | --- |
| O=C(Cc1cccc2ccccc12)N1CCC(CNCCCCN2CCCCC2)CC1 | satisfied |
| CCCNCCCCNCC1CCN(C(=O)Cc2cccc3ccccc23)CC1 | not satisfied |
| O=C(Cc1cccc2ccccc12)N1CCC(CNCCCCNCC2CCCCC2)CC1 | satisfied |
| CC(C)NCCCCNCC1CCN(C(=O)Cc2cccc3ccccc23)CC1 | not satisfied |
| CN(C)CCCCNCC1CCN(C(=O)Cc2cccc3ccccc23)CC1 | satisfied |

Then there is this compound:
Query block: Would you kindly verify if IC50 of CC(C)CNCCCCNCC1CCN(C(=O)Cc2cccc3ccccc23)CC1 is strictly less than 700 nM?
Result block: not satisfied

Attribution: ChEMBL document CHEMBL1133985
